Data origin: the supplement of paper PMC12350171

- System: S. enterica typhimurium tolC KO;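 note: active when median AUC fell below 0.1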
- ASSAY_INFO: growth AUC normalised to DMSO control (median) (fraction of control); higher = less growth inhibition, active = hit call of the paper
- CONDITIONS: 20 µM
Where a name gives a salt, the structure may show the parent alone.
MEASURED_ATTRIBUTE: growth AUC normalised to DMSO control

{"MOLECULE": "Cc1onc(-c2c(Cl)cccc2Cl)c1C(=O)N[C@@H]1C(=O)N2[C@@H]1SC(C)(C)[C@@H]2C(=O)O [Dicloxacillin sodium salt hydrate]", "ASSAYED_SYSTEM": "S. enterica typhimurium tolC KO", "REPORTED_VALUE": 0.00514}
{"MOLECULE": "COc1cc2nc(N(C)CCCNC(=O)C3CCCO3)nc(N)c2cc1OC (stereo not drawn) [Alfuzosin hydrochloride]", "ASSAYED_SYSTEM": "S. enterica typhimurium tolC KO", "REPORTED_VALUE": 1.01}
{"MOLECULE": "CC(=O)N1CCN(c2ccc(OCC3COC(Cn4ccnc4)(c4ccc(Cl)cc4Cl)O3)cc2)CC1 (stereo not drawn)", "ASSAYED_SYSTEM": "S. enterica typhimurium tolC KO", "REPORTED_VALUE": 0.884}
{"MOLECULE": "Oc1c(I)cc(Cl)c2cccnc12", "ASSAYED_SYSTEM": "S. enterica typhimurium tolC KO", "REPORTED_VALUE": 0.55}
{"MOLECULE": "CCOc1ccccc1OCCN[C@H](C)Cc1ccc(OC)c(S(N)(=O)=O)c1 [(R)-Tamsulosin hydrochloride]", "ASSAYED_SYSTEM": "S. enterica typhimurium tolC KO", "REPORTED_VALUE": 0.965}
{"MOLECULE": "NS(=O)(=O)c1cc2c(cc1C(F)(F)F)NC(Cc1ccccc1)NS2(=O)=O (stereo not drawn) [Bendroflumethiazide]", "ASSAYED_SYSTEM": "S. enterica typhimurium tolC KO", "REPORTED_VALUE": 0.993}
{"MOLECULE": "c1ccc(CC2=NCCN2)cc1 [Tolazoline hydrochloride]", "ASSAYED_SYSTEM": "S. enterica typhimurium tolC KO", "REPORTED_VALUE": 1.01}
{"MOLECULE": "OCCN(CCO)c1nc(N2CCCCC2)c2nc(N(CCO)CCO)nc(N3CCCCC3)c2n1", "ASSAYED_SYSTEM": "S. enterica typhimurium tolC KO", "REPORTED_VALUE": 0.956}
